Values compiled from patent US8987314B2.

assayed.target: hepatic lipase (HL) (Homo sapiens (Human), UniProt P11150)
Sequence (P11150 23-499, species assumed): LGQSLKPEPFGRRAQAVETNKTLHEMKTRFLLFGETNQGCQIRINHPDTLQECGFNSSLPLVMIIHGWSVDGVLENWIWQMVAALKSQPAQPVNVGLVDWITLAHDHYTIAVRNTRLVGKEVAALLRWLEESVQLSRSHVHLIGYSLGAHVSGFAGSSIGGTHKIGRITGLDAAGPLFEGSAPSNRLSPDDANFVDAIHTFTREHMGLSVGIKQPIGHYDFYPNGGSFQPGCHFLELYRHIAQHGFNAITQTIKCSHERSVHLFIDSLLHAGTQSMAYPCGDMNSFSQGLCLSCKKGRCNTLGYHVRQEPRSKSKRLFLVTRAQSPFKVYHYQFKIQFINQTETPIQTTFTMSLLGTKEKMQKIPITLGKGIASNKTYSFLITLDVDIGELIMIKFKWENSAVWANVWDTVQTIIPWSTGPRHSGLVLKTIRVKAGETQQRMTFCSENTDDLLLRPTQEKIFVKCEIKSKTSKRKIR
test: HL assay: hepatic lipase activity with fluorescent substrate A10070 in DMPG vesicles
Type: biochemical
reported.metric: IC50 (nM)

// solved cases for IC50 follow
[
  {
    "compound": "NS(=O)(=O)CCNC(=O)C(c1nc2ccc(-c3ccc(C(F)(F)F)nc3)cc2s1)S(=O)(=O)CCN1CCOCC1 (stereo not shown)",
    "IC50 (nM)": 399
  },
  {
    "compound": "CC(C)(O)Cn1cc(-c2ccc3nc(C(C(=O)NCCS(N)(=O)=O)S(C)(=O)=O)sc3c2)ccc1=O (stereo not shown)",
    "IC50 (nM)": 10000
  },
  {
    "compound": "Cc1cc(-c2ccc3nc(C(C(=O)NCCS(N)(=O)=O)S(C)(=O)=O)sc3c2)cnc1F (stereo not shown)",
    "IC50 (nM)": 22
  },
  {
    "compound": "NS(=O)(=O)CCNC(=O)C(c1nc2ccc(-c3ccc(CO)cc3)cc2s1)S(=O)(=O)Cc1ccc(F)cc1 (stereo not shown)",
    "IC50 (nM)": 130
  }
]

(I) COCCNC(=O)c1cccc(-c2ccc3nc(C(C(=O)NCCS(N)(=O)=O)S(C)(=O)=O)sc3c2)c1 (stereo not shown)
(II) CC1(O)CN(C(=O)c2ccc(-c3ccc4sc(C(C(=O)NCCS(N)(=O)=O)S(C)(=O)=O)nc4c3)cc2)C1 (stereo not shown)
-- ask Between the two listed entries I and II , which has its IC50 at the higher number? Answer format: the label of the selected item.
-- reply II

* * *

assayed.target: hepatic lipase (HL) (Homo sapiens (Human), UniProt P11150)
test: HL assay: hepatic lipase activity with fluorescent substrate A10070 in DMPG vesicles
Assay type: biochemical
reported.metric: IC50 (nM)

[
  {
    "compound": "CC1(O)CN(C(=O)c2ccc(-c3ccc4nc(C(C(=O)NCCS(N)(=O)=O)S(=O)(=O)Cc5ccc(F)cc5)sc4c3)cc2)C1 (stereo not shown) [Example B353]",
    "IC50 / nM": 18.5
  },
  {
    "compound": "CC(=O)Nc1ccc(-c2ccc3sc(C(C(=O)NCCS(N)(=O)=O)S(C)(=O)=O)nc3c2)cc1 (stereo not shown) [Example B371]",
    "IC50 / nM": 96.3
  },
  {
    "compound": "CS(=O)(=O)C(C(=O)NCCS(N)(=O)=O)c1nc2ccc(-c3ccc(C(=O)N4CCOCC4)cc3)cc2s1 (stereo not shown) [Example B101]",
    "IC50 / nM": 63
  },
  {
    "compound": "NS(=O)(=O)CCNC(=O)C(c1nc2ccc(-c3ccc4c(c3)CNC4=O)cc2s1)S(=O)(=O)Cc1ccc(C(F)(F)F)cc1 (stereo not shown) [Example B358]",
    "IC50 / nM": 67.6
  },
  {
    "compound": "NS(=O)(=O)CCNC(=O)C(c1nc2ccc(-c3cccc(C(=O)N4CC(F)(F)C4)c3)cc2s1)S(=O)(=O)CCC(F)(F)F (stereo not shown) [Example B334]",
    "IC50 / nM": 60.4
  }
]

(a) COCCNC(=O)c1ccc(-c2ccc3nc(C(C(=O)NCCS(N)(=O)=O)S(C)(=O)=O)sc3c2)cc1 (stereo not shown) [Example B35]
(b) CS(=O)(=O)C(C(=O)NCCS(N)(=O)=O)c1nc2ccc(-c3ccc(-c4ncco4)cc3)cc2s1 (stereo not shown) [Example B224]
-- ask Field: lower IC50 | Options: a / b Answer format: the label of the selected item.
-- reply b
